- Test system: Fer (mouse);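 further: 11-residue human phosphosite peptides and single-mutation variants displayed on the E. coli surface, counted by deep sequencing, each peptide's frequency after selection divided by its frequency in the unselected input library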;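 further: frequency after pTyr selection over input frequency; kinase dosed for 20-30% of maximal phosphorylation in three min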
- ASSAY INFO: phosphorylation enrichment, bacterial display (enrichment ratio); higher = better substrate or ligand; peptides without Tyr show the background
Rule: phosphorylation enrichment under 0.5 gives False, otherwise True.

> print(dat)
                  construct.sequence  discrete.label
 1     VLTSKYHGGGG [HBA1_Y141_R142H]           False
 2       LQTFRYHGHSM [PDHA1_Y289_YF]            True
 3       TSGVVYKARNK [CDK2_Y19_Y15S]            True
 4      VTAALYGCLYE [BTD_Y536_R538C]            True
 5     NTPNAYLRVNV [ADD2_Y440_T439A]           False
 6  PADCRYFTFPQ [GAMT_Y222_A224T_YF]            True
 7    RGVVMYTSKDR [ZG16B_Y136_M133V]           False
 8         GQAPGYSFTAA [CYCS_Y47_YF]           False
 9  VNFGAYINFFK [GLB1_Y488_D491Y_YF]            True
10          TTPAVYARVAK [CTRB2_Y246]           False
11   LERYIYNPEEF [HLA-DPB1_Y59_R61P]            True
12         IKAGAYDFPSP [CAMK2A_Y230]            True
